B1: tRNA (parent)
chain: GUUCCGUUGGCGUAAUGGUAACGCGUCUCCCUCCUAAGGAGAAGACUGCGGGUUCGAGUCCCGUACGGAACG

Variants of: B1
TEST METHOD NOTES: yeast fitness relative to wild type (ratio to wild type); higher = fitter; tRNA-Arg(CCU), competitive growth, 37 C, YPD
Fewer inactive variants are shown than the library holds.
Each entry below carries its reported yeast fitness.

// known answers, use as guide
>  <VARIANT CODE>
U8C G10C C46U C66U

>  <yeast fitness>
≤ 0.5

$$$$
>  <VARIANT CODE>
U7G U26C

>  <yeast fitness>
0.88

$$$$

Now examine the next entry.
Would you mind telling me what yeast fitness value was observed for C27G U28G C66G G67C ?
≤ 0.5

Origin of measurements: the RNAGym collection of RNA variant scans (doi:10.1126/science.aae0568)
